B1: CFHR2 (parent)
chain: FVENGHSESSGQTHLEGDTVQIIC

Variants of: B1
Test: protein stability index of a GFP-peptide fusion (GPS, HEK-293T) (PSI 1-6); higher = more stable;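 note: lentivirally expressed fusions sorted by FACS into six bins by GFP to DsRed ratio, PSI derived from sequencing read proportions per bin multiplied by bin number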
Details: c terminus: a fixed tail appended
Overview of reported protein stability index across a group of variants:
Just the number, please, no unit after it.

# example entries with known answers
Data request: // protein stability index lookup, key: FVENGHSESSGQTHLEGDTMQIIC [V20M]
Data returned: 2.59

Data request: Given the entry FVENGHSESSGQTHLEGHTVQIIC [D18H] , report its measured protein stability index.
Data returned: 2.28

More entries:
Data request: Look up protein stability index: FVENGHSGSSGQTHLEGDTVQIIC [E8G]
Data returned: 2.22

Data request: For FVEWGHSESSGQTHLEGDTVQIIC [N4W] , what is its reported protein stability index?
Data returned: 2.8

Data request: For the variant FVENGHSESSGQTHLEGDTVQIVC [I23V] , what protein stability index is on record?
Data returned: 3.22

Data request: Item FVENGHHESSGQTHLEGDTVQIIC [S7H] has what recorded protein stability index?
Data returned: 2.75

Data request: Bench note: what protein stability index did FVENGHSESSGQTHLEGKTVQIIC [D18K] show?
Data returned: 2.52

Data request: May I ask what protein stability index has been recorded for FVENGHSESIGQTHLEGDTVQIIC [S10I] ?
Data returned: 1.56

Data request: Quick check: protein stability index of FNENGHSESSGQTHLEGDTVQIIC [V2N] ?
Data returned: 4.16

Data request: Fill in the blank: the reported protein stability index of FVENGPSESSGQTHLEGDTVQIIC [H6P] is ____.
Data returned: 3.18
